tested on: HeLa; experiment: Cytotoxicity against human HeLa cells assessed as cell growth inhibition measured after 24 hrs by MTT assay; assay type: functional, cell-based
pIC50: −log10 of the molar value.
observation-type: pIC50

The cases that follow already have their pIC50 on record.
compound	assay-result
COc1cccc2c1C(=O)c1c(O)c3c(c(O)c1C2=O)C[C@@](O)(C(=O)CO)C[C@@H]3O[C@H]1C[C@H](N)[C@H](O)[C@H](C)O1 [DOXORUBICIN]	5.10
C/C=C(\C)C(=O)O[C@@H]1[C@]2(OC(=O)CC)C=C3C4=CC(=O)O[C@@H](c5ccoc5)[C@]4(C)CC[C@@H]3[C@@]3(C)[C@H](C[C@]1(C)[C@H]3[C@@H](OC(=O)CC)C(=O)OC)O2	< 4.00
C/C=C(\C)C(=O)O[C@@H]1[C@]2(OC(=O)C3CC3)C=C3C4=CC(=O)O[C@@H](c5ccoc5)[C@]4(C)CC[C@@H]3[C@@]3(C)[C@H](C[C@]1(C)[C@H]3[C@@H](O)C(=O)OC)O2	< 4.00
C/C=C(\C)C(=O)O[C@@H]1[C@]2(OC(=O)CC)C=C3C4=CC(=O)O[C@@H](c5ccoc5)[C@]4(C)CC[C@@H]3[C@@]3(C)[C@H](C[C@]1(C)[C@H]3[C@@H](O)C(=O)OC)O2	< 4.00

Now for another entry.
Record "C/C=C(\C)C(=O)O[C@@H]1[C@]2(OC(=O)CCCC)C=C3C4=CC(=O)O[C@@H](c5ccoc5)[C@]4(C)CC[C@@H]3[C@@]3(C)[C@H](C[C@]1(C)[C@H]3[C@@H](O)C(=O)OC)O2" , field pIC50: < 4.00
